experiment: xn = mol fraction of the nth substance listed; details: 318.15 K; 101.32 kPa; Liquid; x1 = 0.1
measurement.label: mass density (kg/m3)

Please give the measured mass density for this compound: COCCOCCOCCOCCOC [2,5,8,11,14-pentaoxapentadecane] + CCO 837.1

Ok, now COCCOCCOCCOC [2,5,8,11-tetraoxadodecane] + CCO 819.7

Repeat with COCCOCCOC [2,5,8-trioxanonane] + CCO 801.5

Repeat for the following compound: COCCOC [1,2-dimethoxyethane] + CCO 780.7

* * *

assay: refractive index (Na D-line) (dimensionless); xn = mol fraction of the nth substance listed; conditions: 318.15 K; 101.32 kPa; Liquid; Standard Abbe refractometry; x1 = 0.0165
measurement.label: refractive index

Please report the recorded refractive index for COCCOCCOC [2,5,8-trioxanonane] + CCO . 1.3528

Proceed to COCCOCCOCCOCCOC [2,5,8,11,14-pentaoxapentadecane] + CCO 1.3556

Consider next the molecule COCCOC [1,2-dimethoxyethane] + CCO in the same way. 1.3513

Also, COCCOCCOCCOC [2,5,8,11-tetraoxadodecane] + CCO please. 1.3541

* * *

test: refractive index (Na D-line) (dimensionless); xn = mol fraction of the nth substance listed; conditions: 308.15 K; 101.32 kPa; Liquid; Standard Abbe refractometry; x1 = 0.7999
measurement.label: refractive index

Which refractive index is reported for this compound? COCCOC [1,2-dimethoxyethane] + CCO 1.3705

What do you have for COCCOCCOC [2,5,8-trioxanonane] + CCO ? 1.3973

Param item: COCCOCCOCCOCCOC [2,5,8,11,14-pentaoxapentadecane] + CCO 1.4224

Now this one: COCCOCCOCCOC [2,5,8,11-tetraoxadodecane] + CCO 1.4126

* * *

experiment: refractive index (Na D-line) (dimensionless); xn = mol fraction of the nth substance listed; details: 288.15 K; 101.32 kPa; Liquid; Standard Abbe refractometry; x1 = 0.0125
measurement.label: refractive index

Given COCCOCCOCCOCCOC [2,5,8,11,14-pentaoxapentadecane] + CCO , state its recorded refractive index. 1.3667

Next record, please: COCCOCCOCCOC [2,5,8,11-tetraoxadodecane] + CCO 1.3656

What about this molecule? COCCOCCOC [2,5,8-trioxanonane] + CCO 1.3645

Thanks! And COCCOC [1,2-dimethoxyethane] + CCO ? 1.3635

* * *

assay: refractive index (Na D-line) (dimensionless); xn = mol fraction of the nth substance listed; conditions: 298.15 K; 101.32 kPa; Liquid; Standard Abbe refractometry; x1 = 0.0125
measurement.label: refractive index

Can you look up the measured refractive index of COCCOCCOCCOCCOC [2,5,8,11,14-pentaoxapentadecane] + CCO for me? 1.3627

Would you kindly repeat that for COCCOCCOC [2,5,8-trioxanonane] + CCO ? 1.3605

Input COCCOCCOCCOC [2,5,8,11-tetraoxadodecane] + CCO 1.3616

Please answer likewise for COCCOC [1,2-dimethoxyethane] + CCO 1.3594

* * *

assay: xn = mol fraction of the nth substance listed; conditions: 318.15 K; 101.32 kPa; Liquid; x1 = 0.0045
measurement.label: mass density (kg/m3)

What mass density value was documented for this molecule, COCCOCCOC [2,5,8-trioxanonane] + CCO ? 769.6

Field entry: COCCOCCOCCOC [2,5,8,11-tetraoxadodecane] + CCO 770.6

Repeat with COCCOCCOCCOCCOC [2,5,8,11,14-pentaoxapentadecane] + CCO 771.9

Entry COCCOC [1,2-dimethoxyethane] + CCO please 768.5

* * *

experiment: xn = mol fraction of the nth substance listed; settings: 298.15 K; 101.32 kPa; Liquid; x1 = 0.1
measurement.label: mass density (kg/m3)

Requested field: mass density. Item: COCCOCCOCCOCCOC [2,5,8,11,14-pentaoxapentadecane] + CCO 855.1

// same read-out, input: COCCOCCOC [2,5,8-trioxanonane] + CCO 819.7

Try the compound COCCOC [1,2-dimethoxyethane] + CCO 799

Same question for COCCOCCOCCOC [2,5,8,11-tetraoxadodecane] + CCO please. 837.7

* * *

experiment: refractive index (Na D-line) (dimensionless); xn = mol fraction of the nth substance listed; details: 298.15 K; 101.32 kPa; Liquid; Standard Abbe refractometry; x1 = 0.05
measurement.label: refractive index

Name the reported refractive index value associated with the compound COCCOC [1,2-dimethoxyethane] + CCO 1.3608

Entry COCCOCCOCCOCCOC [2,5,8,11,14-pentaoxapentadecane] + CCO please 1.372

Now the same for COCCOCCOCCOC [2,5,8,11-tetraoxadodecane] + CCO 1.3684

Note, next up: COCCOCCOC [2,5,8-trioxanonane] + CCO 1.3647

* * *

experiment: xn = mol fraction of the nth substance listed; conditions: 288.15 K; 101.32 kPa; Liquid; x1 = 0.0205
measurement.label: mass density (kg/m3)

I would be grateful if you could share the reported mass density for COCCOCCOCCOCCOC [2,5,8,11,14-pentaoxapentadecane] + CCO . 811.5

COCCOCCOCCOC [2,5,8,11-tetraoxadodecane] + CCO ? 806.6

Same for COCCOC [1,2-dimethoxyethane] + CCO 797

What about COCCOCCOC [2,5,8-trioxanonane] + CCO ? 801.8

* * *

assay: refractive index (Na D-line) (dimensionless); conditions: 288.15 K; 101.33 kPa; Liquid; Standard Abbe refractometry
measurement.label: refractive index

Given the entry COCCOC , report its measured refractive index. 1.3824

Note, next up: CCO 1.3632

Also COCCOCCOCCOCCOC , if possible. 1.4344

Same lookup for COCCOCCOCCOC , please. 1.425

Can you check COCCOCCOC next? 1.4101

* * *

test: refractive index (Na D-line) (dimensionless); xn = mol fraction of the nth substance listed; conditions: 318.15 K; 101.32 kPa; Liquid; Standard Abbe refractometry; x1 = 0.35
measurement.label: refractive index

Data request, read-out refractive index, for COCCOC [1,2-dimethoxyethane] + CCO 1.3596

Also need COCCOCCOCCOC [2,5,8,11-tetraoxadodecane] + CCO , thanks. 1.391

Also need COCCOCCOC [2,5,8-trioxanonane] + CCO , thanks. 1.378

Next up: COCCOCCOCCOCCOC [2,5,8,11,14-pentaoxapentadecane] + CCO 1.4009

* * *

test: xn = mol fraction of the nth substance listed; conditions: 308.15 K; 101.32 kPa; Liquid; x1 = 0.0125
measurement.label: mass density (kg/m3)

I have this molecule here, COCCOC [1,2-dimethoxyethane] + CCO , and I need its recorded mass density. 778.4

Now consider COCCOCCOC [2,5,8-trioxanonane] + CCO and answer again. 781.5

And the next one, COCCOCCOCCOCCOC [2,5,8,11,14-pentaoxapentadecane] + CCO ? 787.6

What about COCCOCCOCCOC [2,5,8,11-tetraoxadodecane] + CCO ? 784.4

* * *

assay: xn = mol fraction of the nth substance listed; settings: 308.15 K; 101.32 kPa; Liquid; x1 = 0.55
measurement.label: mass density (kg/m3)

Please give the measured mass density for this compound: COCCOCCOCCOCCOC [2,5,8,11,14-pentaoxapentadecane] + CCO 961.3

Repeat with COCCOCCOCCOC [2,5,8,11-tetraoxadodecane] + CCO 932.4

Same question, COCCOCCOC [2,5,8-trioxanonane] + CCO this time 892.5

Here is the next compound: COCCOC [1,2-dimethoxyethane] + CCO 829.2

* * *

assay: refractive index (Na D-line) (dimensionless); xn = mol fraction of the nth substance listed; settings: 308.15 K; 101.32 kPa; Liquid; Standard Abbe refractometry; x1 = 0.4
measurement.label: refractive index

Look up refractive index: COCCOCCOC [2,5,8-trioxanonane] + CCO 1.3846

One more compound: COCCOCCOCCOC [2,5,8,11-tetraoxadodecane] + CCO 1.3979

What about this compound? COCCOC [1,2-dimethoxyethane] + CCO 1.3651

# repeat for COCCOCCOCCOCCOC [2,5,8,11,14-pentaoxapentadecane] + CCO 1.408

* * *

test: refractive index (Na D-line) (dimensionless); xn = mol fraction of the nth substance listed; conditions: 308.15 K; 101.32 kPa; Liquid; Standard Abbe refractometry; x1 = 0.0125
measurement.label: refractive index

Recorded refractive index for COCCOC [1,2-dimethoxyethane] + CCO , please? 1.3554

Another molecule to look at: COCCOCCOCCOCCOC [2,5,8,11,14-pentaoxapentadecane] + CCO 1.3586

Subsequent entry: COCCOCCOCCOC [2,5,8,11-tetraoxadodecane] + CCO 1.3575

Repeat with COCCOCCOC [2,5,8-trioxanonane] + CCO 1.3565
